Listing of recorded glycan array binding signal (z-score) by entry.
# Tested system: Gal3S(b1-3)GlcNAc
# Assay overview: glycan array binding signal (z-score within array); higher = stronger binding
# Conditions used: glycan notation: IUPAC condensed, linker removed
Shown is part of a subset that was picked to be rich in the strongest signals.

Use these answered entries as a reference point.
>  <Binder>
ArathEULS3 TAP (Arabidopsis thaliana) (protein) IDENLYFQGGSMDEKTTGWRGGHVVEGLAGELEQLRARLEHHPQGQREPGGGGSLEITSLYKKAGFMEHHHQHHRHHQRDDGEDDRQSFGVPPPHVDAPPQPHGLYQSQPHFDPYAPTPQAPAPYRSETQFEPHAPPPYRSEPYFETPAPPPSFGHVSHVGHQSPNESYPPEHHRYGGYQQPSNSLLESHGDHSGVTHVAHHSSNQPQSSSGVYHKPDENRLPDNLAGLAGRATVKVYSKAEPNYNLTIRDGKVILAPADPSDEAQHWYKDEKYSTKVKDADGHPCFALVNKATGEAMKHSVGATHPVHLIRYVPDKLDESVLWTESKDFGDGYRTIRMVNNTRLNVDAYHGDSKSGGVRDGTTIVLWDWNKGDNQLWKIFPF

>  <Endpoint result>
-0.162

$$$$
>  <Binder>
Adiponectin (Rattus norvegicus), Q8K3R4 (protein) MLLLQALLFLLILPSHEGITATEGPGALVPPPKETCAGWMAGIPGYPGHNGIPGRDGRDGTPGEKGEKGDAGVLGPKGDPGDAGMTGAEGPRGFPGTPGRKGEPGEAAYMYHSAFSVGLETRVTVPNVPIRFTKIFYNQQNHYDGSTGKFHCNIPGLYYFSYHITVYMKDVKVSLFKKDKAVLFTYDQYQEKNVDQASGSMLLHLEVGDQVWLQVYGEGDNNGLYADNVNDSTFTGFLLYHDTN

>  <Endpoint result>
-0.814

$$$$
>  <Binder>
MAL-II (Maackia amurensis), P93248 (protein) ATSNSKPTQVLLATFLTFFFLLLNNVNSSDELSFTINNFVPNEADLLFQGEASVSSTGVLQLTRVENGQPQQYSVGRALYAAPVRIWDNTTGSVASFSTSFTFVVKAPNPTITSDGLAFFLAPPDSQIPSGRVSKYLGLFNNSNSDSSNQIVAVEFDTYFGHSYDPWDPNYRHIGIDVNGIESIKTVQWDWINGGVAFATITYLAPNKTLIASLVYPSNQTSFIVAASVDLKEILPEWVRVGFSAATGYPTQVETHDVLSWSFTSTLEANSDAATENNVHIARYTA

>  <Endpoint result>
2.09

$$$$
>  <Binder>
Langerin K313I (Homo sapiens), Q9UJ71 (protein) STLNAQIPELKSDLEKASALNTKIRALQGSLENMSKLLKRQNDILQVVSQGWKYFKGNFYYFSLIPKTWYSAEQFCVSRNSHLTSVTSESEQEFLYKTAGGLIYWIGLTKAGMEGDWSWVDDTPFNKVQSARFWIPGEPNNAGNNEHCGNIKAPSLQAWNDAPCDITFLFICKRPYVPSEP

>  <Endpoint result>
-0.376

$$$$
>  <Binder>
Gal 1 (Mus musculus), P16045 (protein) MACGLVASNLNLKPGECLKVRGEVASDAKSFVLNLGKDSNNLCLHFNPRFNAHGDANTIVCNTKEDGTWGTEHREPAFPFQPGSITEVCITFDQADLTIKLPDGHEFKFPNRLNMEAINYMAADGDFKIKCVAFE

>  <Endpoint result>
2.76

$$$$

Next binder, glycan array binding signal (z-score) to be filled in.
Reported glycan array binding signal (z-score), binder Gal 9 (Canis lupus) (protein) MAFSSSQPPYLSPGVPFSGKIQGGLQDGLKITINGTILYCNGTRFAVNFHSGHSDSDIAFHFNPRFEEGGYVVCNTKQKGSWGSEERKMQMPFQMGNPFELCFMVNSCDFKVTVNGSHFTQYSHRVPFHYVDTLSITGAVQLSYISFQSPGVWQSSSAPITQTVIHTVQTTPGQPFPNPIIPPTAYPTPTYPMPFFTSIPGGLYPSKSIIVSGTVLPGAKRFHINLRSGNDIAFHLNPRFNENTVVRNMQINNSWGSEERSLPRKMPFVQGQSFSVWIMCEGHCFKVAVDGEHLFEYYHRLKNLLAINNMEVAGDVQLTHVQT : ____
0.396
